Reported growth values for a set of compounds
- Tested on: HS 578T breast
- test_protocol: NCI-60 one-dose screen, 48 h (100 = growth as untreated, 0 = no growth, -100 = all killed)
- assay_context: 10 µM unless noted
Compounds without any hit were thinned out: in the full panel of roughly 83,000, 20% have a hit.

compound	growth, %
C[n+]1c2ccccc2c(Nc2ccc(NS(=O)(=O)CCCCN=C(N)N)cc2)c2ccc(N)cc21	34.5
C=C[C@]1(C)C=C2C(=O)[C@@]3(O)OC[C@@]4(CCCC(C)(C)C43O)C2(O)C(O)C1 (stereo not given in full)	90.3
Cc1ccc(S(=O)(=O)Nc2cccc(Cn3c(=O)[nH]c4ccc(Oc5ncccn5)cc4c3=O)c2)cc1	89.3
Brc1c(-c2ccncc2)nc2n1CCS2	117
CCOP1(=O)CC(C)=C(Cl)C(P(=O)(O)O)C1 (stereo not given)	107
